Assay: Study PKH-95032-008: Phase 1, open-label, single-dose pharmacokinetics, safety and tolerability in moderate hepatic impairment vs matched normal hepatic function
Assay type: in vivo, human
Conditions: human, plasma, 20 mg, Group A normal hepatic function; total plasma; 20 mg; read-out: AUC0-t, Geometric Mean (linear mixed effects model)

>  <STRUCTURE_NOTATION>
C[C@@H](Nc1nc(N[C@H](C)C(F)(F)F)nc(-c2cccc(Cl)n2)n1)C(F)(F)F

>  <AUC(0-t) [ng·h/mL]>
1390

$$$$

----------
Test: Study PKH-95032-008: Phase 1, open-label, single-dose pharmacokinetics, safety and tolerability in moderate hepatic impairment vs matched normal hepatic function
Format: in vivo, human
Conditions: human, plasma, 20 mg, Group B moderate hepatic impairment; total plasma; 20 mg; read-out: Cmax, Geometric Mean (linear mixed effects model)
PARAMETER: Cmax (ng/mL)

>  <COMPOUND>
C[C@@H](Nc1nc(N[C@H](C)C(F)(F)F)nc(-c2cccc(Cl)n2)n1)C(F)(F)F [vorasidenib]

>  <READING>
38.5

$$$$

----------
Assay: Study PKH-95032-008: Phase 1, open-label, single-dose pharmacokinetics, safety and tolerability in moderate hepatic impairment vs matched normal hepatic function
Assay type: in vivo, human
Settings: human, plasma, 20 mg, Group B moderate hepatic impairment; 20 mg single dose; median (minimum, maximum); read-out: Tmax
PARAMETER: Tmax

>  <COMPOUND>
C[C@@H](Nc1nc(N[C@H](C)C(F)(F)F)nc(-c2cccc(Cl)n2)n1)C(F)(F)F [vorasidenib]

>  <PARAMETER>
Tmax

>  <READING>
~2 h

$$$$

----------
Test: Study PKH-95032-008: Phase 1, open-label, single-dose pharmacokinetics, safety and tolerability in moderate hepatic impairment vs matched normal hepatic function
Format: in vivo, human
Settings: human, plasma, 20 mg, Group A normal hepatic function; 20 mg single dose; geometric mean (geometric CV %); read-out: AUC0-t

>  <STRUCTURE_NOTATION>
C[C@@H](Nc1nc(N[C@H](C)C(F)(F)F)nc(-c2cccc(Cl)n2)n1)C(F)(F)F

>  <AUC(0-t) / ng·h/mL>
1440

$$$$

----------
Test: Study PKH-95032-008: Phase 1, open-label, single-dose pharmacokinetics, safety and tolerability in moderate hepatic impairment vs matched normal hepatic function
Format: in vivo, human
Conditions: human, plasma, 20 mg, Group A normal hepatic function; total plasma; 20 mg; read-out: Cmax, Geometric Mean (linear mixed effects model)
PARAMETER: Cmax (ng/mL)

>  <STRUCTURE_NOTATION>
C[C@@H](Nc1nc(N[C@H](C)C(F)(F)F)nc(-c2cccc(Cl)n2)n1)C(F)(F)F

>  <PARAMETER>
Cmax

>  <READING>
38.2

$$$$

----------
Assay: Study PKH-95032-008: Phase 1, open-label, single-dose pharmacokinetics, safety and tolerability in moderate hepatic impairment vs matched normal hepatic function
Type: in vivo, human
Conditions: human, plasma, 20 mg, Group A normal hepatic function; 20 mg single dose; median (minimum, maximum); read-out: Tmax

>  <STRUCTURE_NOTATION>
C[C@@H](Nc1nc(N[C@H](C)C(F)(F)F)nc(-c2cccc(Cl)n2)n1)C(F)(F)F

>  <Tmax>
~3 h

$$$$

----------
Test: Study PKH-95032-008: Phase 1, open-label, single-dose pharmacokinetics, safety and tolerability in moderate hepatic impairment vs matched normal hepatic function
Type: in vivo, human
Conditions: human, plasma, 20 mg, Group B moderate hepatic impairment; 20 mg single dose; geometric mean (geometric CV %); read-out: AUC0-t

>  <COMPOUND>
C[C@@H](Nc1nc(N[C@H](C)C(F)(F)F)nc(-c2cccc(Cl)n2)n1)C(F)(F)F [vorasidenib]

>  <AUC(0-t), ng·h/mL>
1680

$$$$

Each recorded value in this set is attributed to patent US20260199363A1.
